- Tested on: PI3K (p110β/p85α)
- Method description: PI3K HTRF enzyme assay, p110β/p85α
- Format: biochemical
- Measurement setup: compound at 500 nM; 100 μM ATP
Label criterion met for high-side % inhibition @ 500 nM p110β (at or above 8%) and criterion not met for low-side % inhibition @ 500 nM p110β (below it).

{"columns": ["Compound", "Class label"],
 "data": [
  ["CCOc1cnc(-c2ccc(NC(=O)Nc3ccc(N4CCOCC4=O)cc3)cc2)nc1-c1ccncc1 [MTR-0398]", "criterion met"],
  ["CCOC(=O)c1nc(-c2ccc(NC(=O)Nc3cccc(F)c3)cc2)nc(N2CCOCC2)c1OCC [MTR-0147]", "criterion not met"],
  ["CSc1c(Cl)nc(-c2ccc(NC(=O)Nc3ccc(F)cc3)cc2)nc1N1CCOCC1 [MTR-0135]", "criterion met"],
  ["CSc1c(Cl)nc(-c2ccc(N)nc2)nc1N1CCOCC1 [MTR-0133]", "criterion not met"],
  ["CCOc1c(CN2CCN(S(C)(=O)=O)CC2)nc(-c2ccc(NC(=O)Nc3ccccc3)cc2)nc1N1CCOCC1 [MTR-0169]", "criterion not met"],
  ["CSc1c(OCCN(C)C)nc(-c2cccc(O)c2)nc1N1CCOCC1 [MTR-0043]", "criterion met"],
  ["COc1cnc(-c2ccc(NC(=O)Nc3cccc(F)c3)cc2)nc1N1CCOCC1 [MTR-0164]", "criterion met"]
]}
